Property: GI50; scope: individual molecules
- System: SF-295
- ASSAY_COMMENT: NCI tumour cell line growth inhibition, 48 h
The source made the active and inactive calls. Rule as the data show it: active = GI50 up to about 1.1 µM and inactive = higher.
ASSAY_METRIC: GI50

molecule=ClCc1nc2cc(Cl)ccc2o1 measured_result="20.3 µM (inactive)"
molecule="CC(C)=CCCC1(Sc2ccccc2)C(=O)OCC1C=C(C)C (stereo not drawn)" measured_result="36.7 µM (inactive)"
molecule=Cc1ccc(CC[PH](=O)CCc2ccc(C)nc2)cn1 measured_result="> 100 µM (inactive)"

---

- Test system: HT-29
- ASSAY_COMMENT: NCI tumour cell line growth inhibition, 48 h
Activity calls are given as the source filed them. Rule as the data show it: active = GI50 up to about 1.1 µM and inactive = higher.
Outcomes: T (active), F (inactive)

molecule=Cc1cc2c(cc1-c1cc3c(cc1C)C(C(C)C)=C(O)C(=O)/C3=C\Nc1cccc3c(N)cccc13)/C(=C/Nc1cccc3c(N)cccc13)C(=O)C(O)=C2C(C)C tested_target=HT-29 category=F
molecule="CCc1nc(N)nc(N)c1-c1ccc(Cl)cc1 [PYRIMETHAMINE]" tested_target=HT-29 category=F
molecule=O=C1C(NCCN2CCOCC2)=C(Cl)C(=O)c2ncccc21 tested_target=HT-29 category=T
molecule=FC(F)(F)c1ccc(/N=C/C=C(/Nc2ccc(C(F)(F)F)cc2)c2ccc(Cl)cc2)cc1 tested_target=HT-29 category=F
molecule="COc1ccc(S(=O)(=O)N2C(=O)CCC2C(=O)NC(N)=O)cc1 (stereo not given)" tested_target=HT-29 category=F

---

- System: SK-MEL-5
- ASSAY_COMMENT: NCI tumour cell line growth inhibition, 48 h
Active and inactive are the calls of the source. No stated cut-off is given here; in the data, active = GI50 up to about 1.1 µM and inactive = higher.
ASSAY_METRIC: GI50

molecule="COC(=O)C1SC(SC)=NC12c1ccccc1Nc1ccccc12 (stereo not given)" measured_result="17.2 µM (inactive)"
molecule=CCCCCNC(=O)c1c(O)[nH]c(=S)[nH]c1=O measured_result="> 100 µM (inactive)"
molecule=O=C(N/N=C/c1ccccc1O)c1cccc([N+](=O)[O-])c1 measured_result="9.98 µM (inactive)"
molecule="O=c1cc(O)ccn1C1C=C(CO)C(O)C1O (stereo not given)" measured_result="> 625 µM (inactive)"
molecule=Cc1nc(C(N)=S)sc1C(/C=C/c1ccc(Cl)c(Cl)c1)=N/NC(C)(C)C measured_result="> 100 µM (inactive)"

---

- Test system: LXFL 529
- ASSAY_COMMENT: NCI tumour cell line growth inhibition, 48 h
Activity calls are given as the source filed them. Cut-off read from the data, not from the text of the source: active = GI50 up to about 1.1 µM and inactive = higher.
Property: GI50; scope: individual compounds
ASSAY_METRIC: GI50

compound=COc1ccc(-c2cc(=O)c3c(O)cc(O)cc3o2)c(OC)c1OC assay_metric=GI50 measured_result="49.3 µM (inactive)"
compound=Cc1ccccc1C(=O)Oc1ccc(Oc2ccccc2)cc1 assay_metric=GI50 measured_result="> 100 µM (inactive)"
compound=COc1ccc2nc3ccccc3c(NCCN(CCCl)CCCl)c2c1 assay_metric=GI50 measured_result="0.466 µM (active)"
compound=O=c1nc(N2CCCC2)nc(N2CCCC2)s1 assay_metric=GI50 measured_result="> 100 µM (inactive)"
compound="CCCC1=C(CC)C(C(=O)Nc2c(C)cccc2C)=NC(S)N1 (centres undefined)" assay_metric=GI50 measured_result="> 100 µM (inactive)"
compound="CN(C)CC1CCCCCCCCCCCCC(CN(C)C)C1=O (centres undefined)" assay_metric=GI50 measured_result="14.9 µM (inactive)"
compound="Cc1ccc(C)c(NC(=O)CC2SC(Nc3ccccc3Cl)=NC2=O)c1 (centres undefined)" assay_metric=GI50 measured_result="74.3 µM (inactive)"
compound=Cc1ccccc1-n1c(C)nc(-c2ccccc2)cc1=O assay_metric=GI50 measured_result="> 100 µM (inactive)"
compound=CCN(CC)c1ccc2c(c1)N=C1N=CC=CN1C2(c1ccc(N(C)C)cc1)c1ccc(N(C)C)cc1 assay_metric=GI50 measured_result="3.84 µM (inactive)"
compound="COc1ccc(/C=C2\\CCCC(C(NO)c3ccc(OC)cc3)C2=NO)cc1 (centres undefined)" assay_metric=GI50 measured_result="28.1 µM (inactive)"
compound=CCCN1C(=O)CNC(=O)c2[nH]cnc21 assay_metric=GI50 measured_result="> 100 µM (inactive)"
compound=COc1cccc([C@@]2(O)c3c(ccc(O)c3OC)[C@H]2OC)c1OC assay_metric=GI50 measured_result="19.6 µM (inactive)"
compound=CS(=O)(=O)N(CCC#N)c1ccc(C=O)cc1 assay_metric=GI50 measured_result="> 100 µM (inactive)"
compound=Cc1ccccc1C1=C/C(=C(\SS/C(C(=O)c2ccc(OCC(=O)O)c(Cl)c2Cl)=C2\C=C(c3ccccc3C)SS2)C(=O)c2ccc(OCC(=O)O)c(Cl)c2Cl)SS1 assay_metric=GI50 measured_result="4.45 µM (inactive)"
compound=S=P(N1CC1)(N1CC1)N1CC1 assay_metric=GI50 measured_result="146 µM (inactive)"
compound="CC(=O)OC1COC(n2c(=S)n(-c3ccccc3)c(=O)c3ccccc32)C(OC(C)=O)C1OC(C)=O (centres undefined)" assay_metric=GI50 measured_result="8.55 µM (inactive)"
compound=CCOc1ccc(/C=C\c2cc(OC)c(OC)c(OC)c2)cc1 assay_metric=GI50 measured_result="< 0.0001 µM (active)"
compound=C=CCn1cc(C(=O)NC(=O)NCCCCCOC(=O)CCCCCCCCCCC(=O)OCCCCCNC(=O)NC(=O)c2cn(CC=C)c(=O)n(C)c2=O)c(=O)n(C)c1=O assay_metric=GI50 measured_result="> 100 µM (inactive)"
compound=Cn1cnc(S[C@H]2[C@H]3C(=O)C=C4S[C@H]5C[C@]42C2=C(N5)C(=O)c4[nH]cc5c4C2=[N+]3CC5)c1C[C@H](N)C(=O)O assay_metric=GI50 measured_result="14.1 µM (inactive)"
